tested on: KKA^y mice; assay: Hypoglycemic and hypolipidemic actions in mice; assay type: in vivo; details: Mus musculus, po, 96 h, 0.001% in powdery diet, four days, percent reduction of plasma glucose compared with the non-treatment group, read-out: Hypoglycemic action (%)
observed property: inhibition in vivo at 0.001 % (%)
Answer in %, number only, no unit symbol.

Prompt: What does the data say about its inhibition in vivo at 0.001 %? Entry: CCOc1nn(Cc2ccc(OCc3nc(-c4cccs4)oc3C)cc2)cc1CCC(=O)O [Example 189]
Completion: 44

Prompt: # query: inhibition in vivo at 0.001 % of entry Cc1oc(-c2ccccc2)nc1COc1ccc(Cn2cc(CCC(=O)O)c(OCc3ccccc3)n2)cc1 [Example 160]
Completion: 54

Prompt: Which inhibition in vivo at 0.001 % value belongs to CCOc1nn(Cc2ccc(OCc3nc(-c4ccccc4)oc3C)cc2)cc1CCC(=O)O [Example 155] ?
Completion: 49

Prompt: Could you share which inhibition in vivo at 0.001 % value was measured for CCOc1nn(Cc2ccc(OCc3nc(-c4ccco4)oc3C)c(OC)c2)cc1CCC(=O)O [Example 174] ?
Completion: 40
